Recorded values, source PubChem BioAssay.

Experiment: small-molecule microarray binders of probe aCHRDL2, primary screen, biochemical, biotinylated probe, 635/667 nm fluorescence (AID 1100)
Conditions: higher = more signal
Tag: label 1 if measured composite z-score is not below 0.3, label 0 if it is.

Here are 2 compounds together with their reported answers.
NCCCCCCNC(=O)[C@@H]1C[C@@H]2C(=O)N3CCC[C@H]3C(=O)N2[C@@H]1c1ccc(O)cc1 : label 0
CCCC=C(CCC)[C@@H](NP(=O)(c1ccccc1)c1ccccc1)c1ccc(C(F)(F)F)cc1 : label 1

Is reported composite z-score greater than or equal to 0.3 here: `CC(=O)NCCCC[C@@H]1NC(=O)[C@@H]2C[C@H](C(=O)O)[C@H](c3ccc(O)cc3)N2C1=O`
label 1

Is reported composite z-score greater than or equal to 0.3 here: CC[C@@H]1[C@H]2C3C(=O)N(CC)C(=O)C3CC(=O)[C@H]2[C@H](c2ccc(C)cc2)N1S(=O)(=O)c1ccc(C)cc1 (stereo not given in full)
label 1

Is reported composite z-score greater than or equal to 0.3 here: `CCOC(=O)C[C@H]1[C@H](OC(=O)c2ccc(C(=O)c3ccccc3)cc2)[C@@H](NC(=O)c2ccc3ccccc3c2)c2cc(OCCCO)ccc2N1C(=O)c1ccccc1`
label 0

Is reported composite z-score greater than or equal to 0.3 here: `O=C1O[C@@H](c2ccccc2)[C@@H](c2ccccc2)N2[C@@H](c3ccccc3OCCO)[C@]3(C(=O)Nc4ccc(C#CCCO)cc43)[C@@H](C(=O)Nc3nc4ccccc4s3)[C@H]12`
label 1

Is reported composite z-score greater than or equal to 0.3 here: COc1ccc(C(O)C2C=CC3C(=O)N(c4ccccc4)C(=O)C3N2Nc2ccc(C#N)cc2)c2ccccc12 (stereo not given)
label 1

Is reported composite z-score greater than or equal to 0.3 here: `CCOC(=O)C1=CC[C@@H](c2ccccc2)N(S(=O)(=O)c2ccc(C)cc2)C1`
label 1

Is reported composite z-score greater than or equal to 0.3 here: CN1C(=O)C2C=CC(C(O)C3CCCCC3)N(N3CCCCC3)C2C1=O (stereo not given)
label 1

Is reported composite z-score greater than or equal to 0.3 here: `CON(C)C(=O)C=C1C[C@@H](c2cccc(Cl)c2)O[C@@H](c2cccc(Cl)c2)O1`
label 0

Is reported composite z-score greater than or equal to 0.3 here: `COc1ccc([Si](C)(C)[C@H]2[C@H](CCn3cc([C@H](O)c4ccccc4)nn3)O[C@@]3(C(=O)N(Cc4ccc(N5CCOC5=O)cc4)c4ccccc43)[C@@H]2C)cc1`
label 0

Is reported composite z-score greater than or equal to 0.3 here: `[N-]=[N+]=NCc1ccccc1C[C@@]1(C(=O)N2CCCCC2)N=C(c2ccc(OCCCO)cc2)O[C@@H]1c1ccccc1N=[N+]=[N-]`
label 1

Is reported composite z-score greater than or equal to 0.3 here: `CO[C@H]1O[C@H](CO)[C@@H](OC(=O)Nc2ccc(C(F)(F)F)cc2)[C@H](OC(=O)Nc2ccc3c(c2)OCO3)[C@H]1OC(=O)Nc1ccc2c(c1)OCO2`
label 1

Is reported composite z-score greater than or equal to 0.3 here: C=C1C2CC3C(=C4C(CO[C@@H]4[C@H]4CCCN4S(=O)(=O)c4ccccc4[N+](=O)[O-])C4C(=O)N(C)C(=O)C34)CC2C(=O)N1C (stereo not given in full)
label 0

Is reported composite z-score greater than or equal to 0.3 here: `C=C(COC)/C(=C/C[C@@H](OC(=O)c1ccncc1)c1ccc(OCCO)cc1)c1cnc2ccccc2c1`
label 0

* * *

System: PRMT1 (protein arginine N-methyltransferase 1)
Assay: PRMT1 binders on small-molecule microarrays, primary screen, biochemical, small-molecule microarray, 635 nm fluorescence (AID 1088);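 also: binding of Prmt1 protein to compounds spotted on small-molecule microarray slides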
Conditions: small-molecule microarray binding, higher = more signal
The following molecules are shown together with reported composite z-score values.
In your answer, state the number alone without any accompanying words.

Completed entries (count: 2):
O=C1O[C@@H](c2ccccc2)[C@@H](c2ccccc2)N2[C@@H](c3ccccc3OCCO)[C@]3(C(=O)Nc4ccc(C#CCCO)cc43)[C@@H](C(=O)Nc3nc4ccccc4s3)[C@H]12 : 1.55
C[N+](C)(C)CCCC[C@@H]1NC(=O)[C@@H]2C[C@H](C(=O)O)[C@H](c3ccc(O)cc3)N2C1=O : -0.701

Can you look up the measured composite z-score of `C=CC[C@@H](OC(=O)Nc1ccc(OC)cc1)c1ccc(OCCO)cc1` for me?
-0.424

Can you look up the measured composite z-score of `C=CC[C@]1(C(=O)N(C)C)N=C(c2ccc(OCCCO)cc2)O[C@H]1c1ccccc1N=[N+]=[N-]` for me?
1.48

* * *

The following compounds are shown together with reported composite z-score values.
Biological target: Dickkopf-related protein 1 (Homo sapiens) (UniProt O94907)
Sequence (O94907 whole entry, looked up): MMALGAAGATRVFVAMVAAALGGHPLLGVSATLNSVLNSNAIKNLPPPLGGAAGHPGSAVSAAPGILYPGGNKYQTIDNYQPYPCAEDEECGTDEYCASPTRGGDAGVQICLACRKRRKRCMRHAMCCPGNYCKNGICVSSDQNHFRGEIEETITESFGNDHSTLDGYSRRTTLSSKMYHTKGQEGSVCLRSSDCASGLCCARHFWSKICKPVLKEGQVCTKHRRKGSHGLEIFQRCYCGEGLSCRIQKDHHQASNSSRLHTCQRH
Experiment: DKK1 binders on small-molecule microarrays, primary screen, biochemical, small-molecule microarray, 635 nm fluorescence scan (AID 1106);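 also: score merges emission near 667 nm with signal to noise over three replicate slides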
Conditions: DKK1 binding, higher = more signal

Completed entries (count: 2):
C=CC[C@@]1(C(=O)N2CCCCC2)N=C(c2ccc(OCCCO)cc2)O[C@@H]1c1ccccc1 : -0.717
CC(C)CNC(=O)[C@@H]1c2ccccc2C(=O)N(Cc2cc(F)cc(C(F)(F)F)c2)[C@H]1c1ccc(CO)cc1 : 0.258

Checklist item: composite z-score tested on Dickkopf-related protein 1 (Homo sapiens) (UniProt O94907), entry `C=CCN1Cc2ccccc2C[C@@]2(N=C(c3ccc(OCCCO)cc3)O[C@H]2c2ccccc2)C1=O` , value?
0.0968

Checklist item: composite z-score tested on Dickkopf-related protein 1 (Homo sapiens) (UniProt O94907), entry `C=C(CCCC)C(=O)CC[C@@H](OC(=O)c1ccccc1-c1ccccc1C(=O)O)c1cccc(OCCO)c1` , value?
0.339

Checklist item: composite z-score tested on Dickkopf-related protein 1 (Homo sapiens) (UniProt O94907), entry `COC(=O)c1c(CC[C@@H](CO)NC(=O)N[C@H](Cn2cc(-c3ccccc3C)nn2)C(C)C)oc(C(C)=O)c1C(=O)OC` , value?
-0.482

Checklist item: composite z-score tested on Dickkopf-related protein 1 (Homo sapiens) (UniProt O94907), entry `[N-]=[N+]=NCc1ccccc1C[C@@]1(C(=O)N2CCCCC2)N=C(c2ccc(OCCCO)cc2)O[C@@H]1c1ccccc1N=[N+]=[N-]` , value?
-0.276

Checklist item: composite z-score tested on Dickkopf-related protein 1 (Homo sapiens) (UniProt O94907), entry `COCCOC(=O)N1C(=O)[C@@]2(c3cc(C#CC4=CCCCC4)ccc31)[C@H](c1ccccc1OCCO)N1[C@H](c3ccccc3)[C@H](c3ccccc3)OC(=O)[C@H]1[C@@H]2C(=O)N1CCc2cc(OC)c(OC)cc2C1` , value?
0.356

* * *

Tested on: Neuregulin-1 EGF-like domain
Experiment: binders of neuregulin-1 EGF-like domain, primary screen, biochemical, small-molecule microarray, 635 nm fluorescence (AID 1081);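 also: binding of the protein to compounds printed on small-molecule microarray slides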
Conditions: small-molecule microarray binding, higher = more signal
The following compounds are shown together with reported composite z-score values.

Completed entries (count: 3):
CCOC(=O)C[C@H]1[C@H](OC(=O)c2ccccc2-c2ccccc2)[C@@H](NC(=O)c2ccc3ccccc3n2)c2cc(OCCCO)ccc2N1C(=O)c1ccc2ccccc2n1 : 0.0721
COCCOC(=O)N1C(=O)[C@@]2(c3cc(C#CC4(O)CCCCCC4)ccc31)[C@H](c1ccccc1OCCO)N1[C@H](c3ccccc3)[C@H](c3ccccc3)OC(=O)[C@H]1[C@@H]2C(N)=O : 1.16
C=C(CCCC)/C(=C/C[C@@H](OC(=O)c1ccncc1)c1cccc(OCCO)c1)c1cnc2ccccc2c1 : 1.13

// below: composite z-score requested for another compound
Can you look up the measured composite z-score of C=C1C2CC3C(=C4C(CO[C@@H]4[C@H]4CCCN4S(=O)(=O)c4ccccc4[N+](=O)[O-])C4C(=O)N(C)C(=O)C34)CC2C(=O)N1C (some centres undefined) for me?
0.0641

* * *

Experiment: P. aeruginosa biofilm formation inhibitors, primary screen, strain PAO1, LB-PBS medium, absorbance 600 nm (AID 1176); also: test concentration not given here
Conditions: P. aeruginosa PAO1 growth/biofilm, A600, 12 h; higher = more signal
Active and inactive are the calls of the source. No rule for the calls is given here.
The following compounds are shown together with reported z-score values.

Completed entries (count: 2):
C=CCOC(=O)[C@@H]1[C@H]2C(=O)O[C@H](c3ccccc3)[C@H](c3ccccc3)N2[C@H](c2ccc(OCCOC(=O)[C@H]3C[C@H]4C(=O)N[C@@H](CCCCN(C)C)C(=O)N4[C@H]3c3cccc(OCCO)c3)cc2)[C@@]12C(=O)Nc1ccc(I)cc12 : 2.57 (inactive)
O=C1OCCC=C[C@H]2OC34C=CCN(c5ccc(Cl)cc5)C(=O)[C@H]3N(CCCCCO)C(=O)[C@@H]4C12 (stereo partly specified) : -0.525 (inactive)

Can you look up the measured z-score of `CC(C)C[C@@H]1NC(=O)[C@H]2C[C@@H](C(=O)NCCCCCC[N+](C)(C)C)[C@@H](c3cccc(OCCO)c3)N2C1=O` for me?
-0.819 (inactive)

Can you look up the measured z-score of `CO[C@H]1O[C@H](CO)[C@@H](OC(=O)Nc2ccc(C(F)(F)F)cc2)[C@H](OC(=O)Nc2ccc3c(c2)OCO3)[C@H]1OC(=O)Nc1ccc2c(c1)OCO2` for me?
0.854 (inactive)

Can you look up the measured z-score of CCOC(=CC(=O)OC)CC(O)c1cccc(Cl)c1 (stereo unspecified) for me?
0.16 (inactive)

Can you look up the measured z-score of `COc1ccc([Si](C)(C)[C@@H]2[C@@H](CCO)O[C@]3(C(=O)N(Cc4cccc(N5C(=O)c6ccccc6Oc6ccccc65)c4)c4ccccc43)[C@H]2C)cc1` for me?
1.64 (inactive)
